recorded_endpoint: melting point

molecule: CC1=NC(NC(=O)Nc2cccc(C)c2)C(=O)N(CC(=O)N2CCC(N3CCCCC3)CC2)c2c(C)cccc21 (racemic)
recorded_endpoint: melting point
value_observed: 214.5 to 217.3 °C
--
molecule: Cc1cccc2c1N(CC(=O)OC(C)(C)C)C(=O)C(NC(=O)Nc1cccc(-c3nnn[nH]3)c1)N=C2c1ccccc1F (racemic)
recorded_endpoint: melting point
value_observed: 151.4 to 174.2 °C (dec.)
--
molecule: CC(=O)c1sccc1CN1C(=O)C(NC(=O)Nc2cccc(C)c2)N=C(CC(C)C)c2ccccc21 (racemic)
recorded_endpoint: melting point
value_observed: 215 to 218 °C
--
molecule: CC1=NC(NC(=O)Nc2cccc(C)c2)C(=O)N(CC(=O)C2CCCC2)c2c(C)cccc21 (racemic)
recorded_endpoint: melting point
value_observed: 150.1 to 155.5 °C
--
molecule: Cc1cccc(NC(=O)NC2N=C(C3CC3)c3cccc(C)c3N(CC(=O)N3CCCCCCC3)C2=O)c1 (racemic)
recorded_endpoint: melting point
value_observed: 177.7 to 179.2 °C
--
molecule: Cc1cccc2c1N(CC(=O)N1CC3CCC(CC3)C1)C(=O)C(NC(=O)Nc1cccc(-c3nnn[nH]3)c1)N=C2C1CCCCC1 (racemic)
recorded_endpoint: melting point
value_observed: 186.2 to 197.6 °C
--
molecule: COc1cccc(NC(=O)NC2N=C(C)c3cccc(C)c3N(CC(=O)N3CC4CCC(CC4)C3)C2=O)c1 (racemic)
recorded_endpoint: melting point
value_observed: 169.6 to 170.7 °C
--
molecule: Cc1cccc2c1N(Cc1ccccn1)C(=O)C(NC(=O)Nc1cccc(-c3nnn[nH]3)c1)N=C2c1ccccc1F (racemic)
recorded_endpoint: melting point
value_observed: 173.9 to 182 °C
--
molecule: CC1=NC(NC(=O)Nc2cccc(C)c2)C(=O)N(CC(=O)C2CCCCCC2)c2c(C)cccc21 (racemic)
recorded_endpoint: melting point
value_observed: 171.3 to 174.6 °C
--
molecule: Cc1cccc(NC(=O)NC2N=C(C(C)C)c3cccc(C)c3N(CC(=O)N3CC4CCC(CC4)C3)C2=O)c1 (racemic)
recorded_endpoint: melting point
value_observed: 189.9 to 192.8 °C
--
molecule: Cc1cccc2c1N(CC(=O)N1CC3CCC(CC3)C1)C(=O)C(NC(=O)Nc1cccc(O)c1)N=C2c1ccccc1F (racemic)
recorded_endpoint: melting point
value_observed: 192.8 to 203.9 °C
--
molecule: Cc1cccc(NC(=O)NC2N=C(CC3CCCCC3)c3ccccc3N(CC(=O)N3CC4CCC(CC4)C3)C2=O)c1 (racemic)
recorded_endpoint: melting point
value_observed: 164 to 166 °C
--
molecule: CCCCC1=NC(NC(=O)Nc2cccc(C)c2)C(=O)N(CC(=O)N2CC3CCC(CC3)C2)c2ccccc21 (racemic)
recorded_endpoint: melting point
value_observed: 121 to 123 °C
--
molecule: Cc1cccc(NC(=O)NC2N=C(C3CCCCC3)c3cccc(C)c3N(C)C2=O)c1 (racemic)
recorded_endpoint: melting point
value_observed: 196.4 to 197.5 °C
--
molecule: CCC1=NC(NC(=O)Nc2cccc(C)c2)C(=O)N(CC(=O)C2CCCCC2)c2c(C)cccc21 (racemic)
recorded_endpoint: melting point
value_observed: 161.2 to 164 °C

Each recorded value in this set is attributed to patent US20020183313A1.
